- study.target: human SERT (Homo sapiens, UniProt P31645)
- Sequence (P31645 whole entry): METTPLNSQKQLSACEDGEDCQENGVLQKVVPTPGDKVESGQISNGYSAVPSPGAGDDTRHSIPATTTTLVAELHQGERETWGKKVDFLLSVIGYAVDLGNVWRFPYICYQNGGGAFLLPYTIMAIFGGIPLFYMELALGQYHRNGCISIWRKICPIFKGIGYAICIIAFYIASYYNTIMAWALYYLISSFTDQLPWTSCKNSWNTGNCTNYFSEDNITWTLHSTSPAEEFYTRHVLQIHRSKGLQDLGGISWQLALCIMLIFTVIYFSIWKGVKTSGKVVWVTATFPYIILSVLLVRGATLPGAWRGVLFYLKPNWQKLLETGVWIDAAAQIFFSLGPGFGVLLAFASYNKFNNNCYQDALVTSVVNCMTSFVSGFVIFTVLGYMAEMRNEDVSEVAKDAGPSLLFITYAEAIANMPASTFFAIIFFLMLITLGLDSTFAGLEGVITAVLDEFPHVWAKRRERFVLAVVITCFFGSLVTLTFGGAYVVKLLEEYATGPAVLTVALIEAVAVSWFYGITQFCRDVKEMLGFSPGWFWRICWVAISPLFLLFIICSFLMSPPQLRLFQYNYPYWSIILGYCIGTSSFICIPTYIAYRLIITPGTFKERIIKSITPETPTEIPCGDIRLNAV
- assay.method.text: SERT uptake inhibition assay in HEK293 cells ([3H]5-HT)
readout.kind: pIC50
Answers are plain numbers, as −log10 of the molar value.

Check out these entries, answers already filled in.
CN[C@H](C)C(=O)c1ccc(C(F)(F)F)cc1 ... 4.65
Cc1ccc(C(=O)[C@@H](C)N)cc1 ... 3.73
CN[C@@H](C)C(=O)c1ccc(C)cc1 ... 4.96
CN[C@@H](C)C(=O)c1ccc(C(F)(F)F)cc1 ... 4.99
CN[C@@H](C)C(=O)c1ccccc1 ... 3.41
CN[C@H](C)C(=O)c1ccc(C)cc1 ... 4.11
CN[C@H](C)C(=O)c1ccccc1 ... 3.02

Could you now look at the following molecule, please?
QUERY: Given "Cc1ccc(C(=O)[C@H](C)N)cc1" , state its recorded pIC50.
RESULT: 4.90

###

- study.target: human SERT (Homo sapiens, UniProt P31645)
- Construct: expressed in transfected cells
- assay.method.text: [3H]5-HT release assay in HEK293 cells (superfusion)
- Type: cell-based
- particulars: 10 µM, SERT-expressing HEK293 cells
- Description: HEK293 cells stably expressing SERT were seeded onto PDL-coated glass coverslips (5 mm diameter) that were placed into 96-well plates at a density of 40,000 cells per well the day before the experiment. Cells were preloaded with [^3H]5-HT (0.4 µM, 20 min at 37 °C). […] Subsequently, the cells were superfused with 1% SDS for three final fractions that served to determine the total amount of radioactivity present within the cells at the end of each experimental run. […]
readout.kind: effect on release of preloaded [3H]5-HT

Cc1ccc(C(=O)[C@H](C)N)cc1 [S-4-MC, 4-methylcathinone] ... robustly increased
CN[C@@H](C)C(=O)c1ccc(C(F)(F)F)cc1 [S-4-TFMMC, 4-trifluoromethyl-N-methylcathinone] ... robustly increased
CN[C@@H](C)C(=O)c1ccc(C)cc1 [S-4-MMC, 4-methyl-N-methylcathinone] ... robustly increased

###

- study.target: human DAT (Homo sapiens, UniProt Q01959)
- Construct: expressed in transfected cells
- Sequence (Q01959 whole entry): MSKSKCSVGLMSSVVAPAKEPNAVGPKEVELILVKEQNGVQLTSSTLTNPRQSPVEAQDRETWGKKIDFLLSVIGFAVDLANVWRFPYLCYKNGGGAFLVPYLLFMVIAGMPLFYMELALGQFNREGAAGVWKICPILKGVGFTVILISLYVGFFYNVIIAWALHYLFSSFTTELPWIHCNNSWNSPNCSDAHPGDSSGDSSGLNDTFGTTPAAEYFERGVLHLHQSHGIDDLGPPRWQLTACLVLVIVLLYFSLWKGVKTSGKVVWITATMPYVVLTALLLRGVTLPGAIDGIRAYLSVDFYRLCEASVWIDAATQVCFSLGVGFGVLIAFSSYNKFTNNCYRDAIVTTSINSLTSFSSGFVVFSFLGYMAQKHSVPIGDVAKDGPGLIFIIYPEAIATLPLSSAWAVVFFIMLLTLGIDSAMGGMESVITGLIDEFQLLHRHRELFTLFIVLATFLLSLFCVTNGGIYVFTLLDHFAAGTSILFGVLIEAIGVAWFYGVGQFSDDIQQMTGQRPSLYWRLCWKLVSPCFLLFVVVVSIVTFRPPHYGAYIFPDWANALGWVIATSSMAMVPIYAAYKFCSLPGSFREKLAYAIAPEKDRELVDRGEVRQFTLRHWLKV
- assay.method.text: DAT uptake inhibition assay in HEK293 cells ([3H]MPP+)
- Assay type: cell-based
- particulars: (1/DAT IC50)/(1/SERT IC50); higher values indicate higher DAT-selectivity
readout.kind: DAT/SERT ratio

Check out these entries, answers already filled in.
CN[C@@H](C)C(=O)c1ccccc1 [S-MC, N-methylcathinone] ... 43.2
CN[C@@H](C)C(=O)c1ccc(C)cc1 [S-4-MMC, 4-methyl-N-methylcathinone] ... 1.06
CN[C@H](C)C(=O)c1ccc(C(F)(F)F)cc1 [R-4-TFMMC, 4-trifluoromethyl-N-methylcathinone] ... 0.15
Cc1ccc(C(=O)[C@@H](C)N)cc1 [R-4-MC, 4-methylcathinone] ... 19.3
CN[C@@H](C)C(=O)c1ccc(C(F)(F)F)cc1 [S-4-TFMMC, 4-trifluoromethyl-N-methylcathinone] ... 0.05

Give measured DAT/SERT ratio for every item shown.
1. CN[C@H](C)C(=O)c1ccccc1 [R-MC, N-methylcathinone]
2. Cc1ccc(C(=O)[C@H](C)N)cc1 [S-4-MC, 4-methylcathinone]

RESULT:
90.7
1.9

QUERY: Given CN[C@H](C)C(=O)c1ccc(C)cc1 [R-4-MMC, 4-methyl-N-methylcathinone] , state its recorded DAT/SERT ratio.
RESULT: 6.2

###

- study.target: human DAT (Homo sapiens, UniProt Q01959)
- assay.method.text: DAT uptake inhibition assay in HEK293 cells ([3H]MPP+)
readout.kind: IC50 (µM)
Answers are plain numbers, in µM.

Check out these entries, answers already filled in.
Cc1ccc(C(=O)[C@@H](C)N)cc1 ... 9.6
CN[C@H](C)C(=O)c1ccc(C)cc1 ... 12.5
CN[C@@H](C)C(=O)c1ccccc1 ... 9.1

Could you now look at the following compound, please?
QUERY: Given "CN[C@@H](C)C(=O)c1ccc(C(F)(F)F)cc1" , state its recorded IC50.
RESULT: 190

###

- study.target: human DAT (Homo sapiens)
- assay.method.text: DAT uptake inhibition assay in HEK293 cells ([3H]MPP+)
readout.kind: IC50 (µM)
Answers are plain numbers, in µM.

CN[C@H](C)C(=O)c1ccccc1 ... 10.6
CN[C@@H](C)C(=O)c1ccc(C)cc1 ... 10.3
Cc1ccc(C(=O)[C@H](C)N)cc1 ... 6.65

Could you now look at the following molecule, please?
QUERY: Given "CN[C@H](C)C(=O)c1ccc(C(F)(F)F)cc1" , state its recorded IC50.
RESULT: 153

###

- Tested on: C57BL/6N mice
- assay.method.text: Forced-swim test (FST)
- Format: in vivo
- particulars: 10 mg kg-1 intraperitoneal, mice
readout.kind: immobility time in the FST versus vehicle

Cc1ccc(C(=O)[C@@H](C)N)cc1 ... had no effect
CN[C@H](C)C(=O)c1ccc(C(F)(F)F)cc1 ... had no effect
